test system: culture of Flammulina velutipes strain IFO 30601; test: Direct oxidation reaction by the culture; format: biochemical; details: pH 7.0
measurement-kind: activity of the culture for the substrate in words, direct oxidation reaction

# compound, target-or-test-system, value-observed
measured = [
    ("Nc1ccc(Nc2ccccc2)cc1 [N-Phenyl-p-phenylenediamine]", "culture of Flammulina velutipes strain IFO 30601", "especially high activity"),
    ("O=C(c1ccc(O)cc1)c1ccc(O)c(O)c1O [2,3,4,4-Tetrahydroxybenzophenone]", "culture of Flammulina velutipes strain IFO 30601", "high activity"),
    ("Nc1ccc(N)cc1 [p-Phenylenediamine]", "culture of Flammulina velutipes strain IFO 30601", "especially high activity"),
    ("COc1cccc(OC)c1O [2,6-Dimethoxyphenol]", "culture of Flammulina velutipes strain IFO 30601", "high activity"),
    ("Oc1cccc(O)c1O [Pyrogallol]", "culture of Flammulina velutipes strain IFO 30601", "high activity"),
]

I need activity of the culture for the substrate in words, direct oxidation reaction for every entry listed below, if you could help.
1. CNc1ccc(O)cc1 [p-Methylaminophenol]
2. O=C(c1ccccc1)c1ccc(O)c(O)c1O [2,3,4-Trihydroxybenzophenone]
3. Nc1ccccc1O [o-Aminophenol]
4. Nc1ccc(O)cc1 [p-Aminophenol]

1: especially high activity; 2: especially high activity; 3: especially high activity; 4: especially high activity
